# test.name: In Vivo Pharmacokinetics Assay in mouse
# experimental.setup: male, Balb/c, plasma, PO 5 mg/kg, n = 1
# Protocol: Full pharmacokinetics study: Male Balb/c mice (n=3, body weights 22-25 g) or male Wistar rats (n=3, body weights 250-300 g) were administered the test compound intravenously via the lateral tail vein or orally via gavage. The formulation was typically a 2.5 mg/mL solution of the compound in 75% PEG300 and 25% D5W. Six blood samples of 50 μL each were collected serially for 24 h after dosing. […] Plasma samples were analyzed and quantified by LC-MS/MS. […]
test.readout: Cmax at 24 h (µM)
Could you give me the number in µM? Just the number is fine.

INSERT INTO results (molecule, measured_result) VALUES
  ('CCCS(=O)(=O)Nc1cc(Cl)cc(-c2nn(C(C)C)cc2-c2ccnc(NC[C@H](C)NC(=O)OC)n2)c1F', 7.4);

Asked: Look at this molecule and give its reported Cmax at 24 h. CCCS(=O)(=O)Nc1cccc(-c2nn(C(C)C)cc2-c2ccnc(NC[C@H](C)NC(=O)OC)n2)c1F
Given back: 0.07

---

IC50 listing for selected molecules.
# system.tested: B-Raf V600E (Homo sapiens (Human), UniProt P15056, V600E)
# Sequence (P15056 whole entry V600E): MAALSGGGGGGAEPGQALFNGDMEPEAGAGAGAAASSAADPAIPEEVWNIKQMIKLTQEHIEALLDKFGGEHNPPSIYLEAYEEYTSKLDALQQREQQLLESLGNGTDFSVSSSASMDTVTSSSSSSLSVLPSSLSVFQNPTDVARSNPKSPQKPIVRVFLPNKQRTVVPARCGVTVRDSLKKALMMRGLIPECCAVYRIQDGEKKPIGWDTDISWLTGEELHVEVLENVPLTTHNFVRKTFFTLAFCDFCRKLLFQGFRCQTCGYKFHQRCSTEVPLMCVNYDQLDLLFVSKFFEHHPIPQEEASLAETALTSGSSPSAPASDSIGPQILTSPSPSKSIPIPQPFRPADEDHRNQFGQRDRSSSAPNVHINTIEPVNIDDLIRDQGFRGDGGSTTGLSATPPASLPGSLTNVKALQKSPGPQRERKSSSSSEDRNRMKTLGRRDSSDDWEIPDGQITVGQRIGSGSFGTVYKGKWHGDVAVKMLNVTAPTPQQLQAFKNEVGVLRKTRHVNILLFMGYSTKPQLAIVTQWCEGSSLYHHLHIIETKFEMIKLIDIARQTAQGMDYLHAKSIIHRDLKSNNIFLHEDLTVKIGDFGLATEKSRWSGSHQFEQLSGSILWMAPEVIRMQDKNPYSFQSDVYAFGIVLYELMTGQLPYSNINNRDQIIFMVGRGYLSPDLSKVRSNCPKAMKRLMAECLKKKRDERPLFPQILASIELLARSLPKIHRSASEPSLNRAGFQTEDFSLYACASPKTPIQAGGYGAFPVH
# test.name: B-Raf V600E/Mek Amplified Luminescence Proximity Homogeneous Assay (B-Raf V600E biochemical)
# experimental.setup: read-out: BRAF V600E biochemical IC50
Could you give me the number in nM? Just the number is fine.

Past entries and their recorded results:
INSERT INTO results (molecule, test_readout, measured_result) VALUES
  ('CCn1cc(-c2ccnc(NC[C@H](C)NC(=O)OC)n2)c(-c2cc(Cl)cc(NS(C)(=O)=O)c2F)n1 [Compound 11]', 'IC50', 0.5),
  ('CCS(=O)(=O)Nc1c(F)ccc(-c2nn(C(C)C)cc2-c2ccnc(NC[C@H](C)NC(=O)OC)n2)c1F [Compound 26]', 'IC50', 1.7),
  ('COC(=O)N[C@@H](C)CNc1nccc(-c2cn(C(C)C)nc2-c2cc(Cl)cc(NS(C)(=O)=O)c2)n1 [Compound 2]', 'IC50', 0.8);

Asked: Look at this molecule and give its reported IC50. COC(=O)N[C@@H](C)CNc1nccc(-c2cn(C(C)C)nc2-c2cccc(NS(C)(=O)=O)c2F)n1 [Compound 4]
Given back: 2.3

Asked: Further, for COC(=O)N[C@@H](C)CNc1nccc(-c2cn(C(C)C)nc2-c2c(F)ccc(NS(C)(=O)=O)c2F)n1 [Compound 6] ?
Given back: 3.9

Asked: Further, for CCCS(=O)(=O)Nc1c(F)ccc(-c2nn(C(C)C)cc2-c2ccnc(NC[C@H](C)NC(=O)OC)n2)c1F [Compound 34] ?
Given back: 2.7

---

# test.name: Liver Microsomal Clearance Assay, human
# Type: in vitro ADME
# experimental.setup: extraction ratio, human liver microsomes
test.readout: ER Human

INSERT INTO assay_data (molecule, test_readout, measured_result) VALUES
  ('COC(=O)N[C@@H](C)CNc1nccc(-c2cn(C(C)C)nc2-c2c(F)ccc(NS(C)(=O)=O)c2F)n1', 'ER Human', 0.69),
  ('CCCS(=O)(=O)Nc1cc(Cl)cc(-c2nn(C(C)C)cc2-c2ccnc(NC[C@H](C)NC(=O)OC)n2)c1F', 'ER Human', 0.66),
  ('CCCS(=O)(=O)Nc1ccc(F)c(-c2nn(C(C)C)cc2-c2ccnc(NC[C@H](C)NC(=O)OC)n2)c1F', 'ER Human', 0.65);

Asked: Look at this compound and give its reported ER Human. CCCS(=O)(=O)Nc1cccc(-c2nn(C(C)C)cc2-c2ccnc(NC[C@H](C)NC(=O)OC)n2)c1F
Given back: 0.69

Asked: Further, for COC(=O)N[C@@H](C)CNc1nccc(-c2cn(C(C)C)nc2-c2cccc(NS(C)(=O)=O)c2F)n1 ?
Given back: <0.31

Asked: Further, for COC(=O)N[C@@H](C)CNc1nccc(-c2cn(C(C)C)nc2-c2cc(Cl)cc(NS(C)(=O)=O)c2F)n1 ?
Given back: <0.21

These entries and their values trace back to patent US9314464B2.
